System: Plasmodium berghei
Test: Luciferase/luciferin-expressing antifolate-resistant parasites were used to infect a culture of HepG2 cells that were pre-incubated with compounds. Infected hepatocytes emit light due to the luciferase reaction. Assay results are presented as the percent inhibition of light emission compared to control. […]
Assay type: functional
Settings: sporozoite, PBLUC_HILL_SLOPE 10.1, PBLUC_R_SQUARED 0.35, read-out: LUCIFERASE INFECTION ASSAY - IC50
pIC50: −log10 of the molar value.

- compound: "CCOc1cc(-c2nccc3cc(OC)c(OC)cc23)cc(OCC)c1OCC [OCTAVERINE]"
  pIC50: 5.19

====

Tested on: Plasmodium berghei
Assay: Luciferase/luciferin-expressing antifolate-resistant parasites were used to infect a culture of HepG2 cells that were pre-incubated with compounds. Infected hepatocytes emit light due to the luciferase reaction. Assay results are presented as the percent inhibition of light emission compared to control. […]
Format: functional
Conditions: sporozoite, HEPG2TOX_HILL_SLOPE 1.91, HEPG2TOX_R_SQUARED 0.9, PBLUC_HILL_SLOPE 11.3, PBLUC_R_SQUARED 0.663, read-out: LUCIFERASE INFECTION ASSAY - IC50

- structure: "CCn1c2ccccc2c2cc(Nc3c(C#N)c(=O)n(C)c(=O)n3C)ccc21"
  system-tested: "Plasmodium berghei"
  IC50, µM: 0.418

====

System: Plasmodium berghei
Assay: Luciferase/luciferin-expressing antifolate-resistant parasites were used to infect a culture of HepG2 cells that were pre-incubated with compounds. Infected hepatocytes emit light due to the luciferase reaction. Assay results are presented as the percent inhibition of light emission compared to control. […]
Type: functional
Conditions: sporozoite, HEPG2TOX_HILL_SLOPE 16.0, 27.0, HEPG2TOX_R_SQUARED 0.190, 0.836, PBLUC_HILL_SLOPE 15.6, PBLUC_R_SQUARED 0.223, read-out: LUCIFERASE INFECTION ASSAY - IC50
readout-kind: IC50 (µM)

- compound: "CCN(CC)c1ccc(/C=N/NC(=S)NCC2CCCO2)c(O)c1 (stereo unspecified)"
  observed-value: 8.89

====

Tested on: Plasmodium berghei
Assay: Luciferase/luciferin-expressing antifolate-resistant parasites were used to infect a culture of HepG2 cells that were pre-incubated with compounds. Infected hepatocytes emit light due to the luciferase reaction. Assay results are presented as the percent inhibition of light emission compared to control. […]
Type: functional
Conditions: sporozoite, FFLUC_HILL_SLOPE 15.4, FFLUC_R_SQUARED 0.324, HEPG2TOX_HILL_SLOPE 12.8, HEPG2TOX_R_SQUARED 0.543, PBLUC_HILL_SLOPE 10.1, PBLUC_R_SQUARED 0.012, read-out: LUCIFERASE INFECTION ASSAY - IC50
pIC50: −log10 of the molar value.

- structure: "O=C1C=C(c2ccc(Cl)cc2)C(=O)N1Nc1ccc(Cl)cc1Cl"
  pIC50: 5.08

====

System: Plasmodium berghei
Experiment: Luciferase/luciferin-expressing antifolate-resistant parasites were used to infect a culture of HepG2 cells that were pre-incubated with compounds. Infected hepatocytes emit light due to the luciferase reaction. Assay results are presented as the percent inhibition of light emission compared to control. […]
Assay type: functional
Conditions: sporozoite, FFLUC_HILL_SLOPE 0.347, FFLUC_R_SQUARED 0.604, read-out: LUCIFERASE INFECTION ASSAY - IC50

- structure: "NS(=O)(=O)c1ccc(Nc2nc(-c3ccc(Cl)s3)cs2)cc1"
  IC50: "> 10 µM"
